This collection of values is drawn from PubChem BioAssay (NCI).

Listed next: entries and their corresponding TGI.
# System: SK-MEL-2 melanoma
# test summary: NCI tumour cell line growth inhibition, 48 h

Consider the worked cases shown below.
molecule	recorded endpoint	readout value
COC(=O)[C@@H](Cc1c[nH]c2ccccc12)NC(=O)/C=C/c1ccccc1	TGI	> 100 µM
NC(=O)c1csc(CCCCCCc2nc(C(N)=O)cs2)n1	TGI	> 100 µM

Look up TGI: CCCC(=O)N/S(=N/S(=O)(=O)c1ccc(Cl)cc1)C(Cl)(Cl)Cl (centres undefined) > 100 µM

Queued: CO[C@@](c1ccccc1)(c1nc(C#N)c(N)o1)C(F)(F)F > 100 µM

Same question for CCOC(=O)c1c(C)n(CC(C)C)c2c1cc1oc(=O)c(=O)n3cnc2c13 please. > 50 µM

Okay, and Cn1cnc2c(OCC3CCCCC3)nc(N)nc21 ? > 100 µM

Query Cc1ccc(S(=O)(=O)[N-]C2C(=O)c3ccccc3C(=O)C2[n+]2cccc(C(N)=O)c2)cc1 (centres undefined) next > 100 µM

Same read-out for O=C1OC(c2ccccc2)=N/C1=C\c1c(O)cc(O)cc1O ? > 100 µM

And for CC(C)CC(CNC(Cc1ccc(Cl)cc1)C(N)=O)NC(=O)C(Cc1cnc[nH]1)NC(=O)CNC(=O)C(NC(=O)C(C)NC(=O)C(Cc1c[nH]c2ccccc12)NC(=O)C(CCC(=O)O)NC(=O)C(N)Cc1ccccc1)C(C)C (centres undefined) ? > 133 µM

* * *

# Tested on: U251 CNS
# test summary: NCI tumour cell line growth inhibition, 48 h
recorded endpoint: TGI

Worked examples, 5 compounds total:
>>> print(df.to_string())
                                   compound  recorded_endpoint  readout_value
0  COc1cc(-c2nn(C(=O)NS(=O)(=O)c3ccc(C)cc3)cc2-c2ccncc2)ccc1Cl                TGI        28.5 µM
1  c1ccc2cc(OCC3CO3)c(OCC3CO3)cc2c1 (configuration not stated)                TGI        13.9 µM
2  COc1ccc(/C=C2\N=C(c3ccccc3)N(Nc3nnc(NN4C(=O)/C(=C/c5ccc(OC)cc5)N=C4c4ccccc4)c4ccccc34)C2=O)cc1                TGI       > 100 µM
3  CC(=O)NCC1(c2ccccc2)CCN(CC2COc3ccccc3O2)CC1 (configuration not stated)                TGI       > 100 µM
4  COC1(OC)CC2C(=O)N(Cc3ccccc3)C1CC2S(=O)(=O)c1ccccc1 (configuration not stated)                TGI       > 100 µM

# input compound: CCN(CC)Cc1ccc2cccnc2c1O ; wanted: its TGI > 100 µM

// same read-out, input: CC(C)C[C@H](NC(=O)CCc1ccccc1)B(O)O > 100 µM

Repeat with O=C(CCC(=O)N/N=C/c1ccccc1O)N/N=C/c1ccccc1O > 100 µM

Try the compound CC[C@H](Nc1nc(N)nc(N)c1Cl)c1nc2cccc(NCc3ccc(C(=O)NO)cc3)c2c(=O)n1-c1ccccc1 3.08 µM

Thanks! And NS(=O)(=O)c1ccc(NC(=O)CC(=O)Nc2ccc(S(N)(=O)=O)cc2)cc1 ? > 100 µM

Check CC1CCCN(CC(O)CN2CCCc3ccccc32)C1 (configuration not stated) too. > 100 µM

And then O=C1c2ccccc2C(=O)c2c(NCCNC(=O)C3CCCN3)ccc(NCCNC(=O)C3CCCN3)c21 (configuration not stated) , what is it? > 100 µM
